Record form. Attribute: IC50. Fill in for each entry.
Test system: rat cortical neurons
Test Method Notes: Hypoxia-induced apoptosis of rat cortical neurons
Type: cell-based, Wistar rat
Test Conditions: Cortical neurone, 95% N2/5% CO2, Cell Death Detection ELISA (DNA fragmentation)
Description: Cortical neurons are dissociated from Wistar rat embryos (E17) by a modification of the procedure of Rogers et al. 1997, Brain Res. Bulletin, 44:131. Briefly, cerebral cortices are isolated aseptically from 15-20 Wistar rat embryos. […] The yield of neurons is […] per embryo and they are 80-90% viable as assessed by Trypan blue exclusion. The neurons are cultured in complete medium at 37° C. in a normal atmosphere for 48 hours prior to the hypoxia experiments. […] Plates are read at 405 nm. […]

Query: Given CC[C@@H](C(=O)N[C@@H](CC(=O)O)C(=O)COc1c(F)c(F)cc(F)c1F)n1cccc(NC(=O)c2ccccc2)c1=O , state its recorded IC50.
Result: < 1000 nM

Query: What do we get for CC[C@@H](C(=O)N[C@@H](CC(=O)O)C(=O)COc1c(F)c(F)cc(F)c1F)n1cccc(NC(=O)OC)c1=O ?
Result: < 1000 nM

Query: What do we get for CCC(=O)Nc1cccn([C@@H](CC)C(=O)N[C@@H](CC(=O)O)C(=O)COc2c(F)c(F)cc(F)c2F)c1=O ?
Result: < 1000 nM

Query: What do we get for CC[C@@H](C(=O)N[C@@H](CC(=O)O)C(=O)COc1c(F)c(F)cc(F)c1F)n1cccc(Nc2nccs2)c1=O ?
Result: < 1000 nM

Query: What do we get for CC[C@@H](C(=O)NC(CC(=O)O)C(=O)CF)n1cccc(NC(=O)c2ccccc2)c1=O (stereo partly shown) ?
Result: 1000 to 10000 nM

Query: What do we get for CC[C@@H](C(=O)N[C@@H](CC(=O)O)C(=O)COc1c(F)c(F)cc(F)c1F)n1cccc(NC(=O)COC)c1=O ?
Result: 1000 to 10000 nM

Query: What do we get for CCS(=O)(=O)Nc1cccn([C@H](C(=O)N[C@@H](CC(=O)O)C(=O)COc2c(F)c(F)cc(F)c2F)C(C)C)c1=O ?
Result: 1000 to 10000 nM

###

Test system: rat cortical neurons
Test Method Notes: Hypoxia-induced apoptosis of rat cortical neurons
Type: cell-based, Wistar rat
Test Conditions: Cortical neurone, 95% N2/5% CO2, Cell Death Detection ELISA (DNA fragmentation)
pIC50: −log10 of the molar value.
Record form. Attribute: pIC50. Fill in for each entry.

Query: Given CC[C@@H](C(=O)N[C@@H](CC(=O)O)C(=O)COc1c(F)c(F)cc(F)c1F)n1cccc(NC(=O)c2cccnc2)c1=O , state its recorded pIC50.
Result: 5.00 to 6.00

Query: What do we get for CC[C@@H](C(=O)N[C@@H](CC(=O)O)C(=O)COc1c(F)c(F)cc(F)c1F)n1cccc(NS(=O)(=O)c2ccccc2)c1=O ?
Result: 5.00 to 6.00

Query: What do we get for CC[C@@H](C(=O)N[C@@H](CC(=O)O)C(=O)COc1c(F)c(F)cc(F)c1F)n1cccc(NS(=O)(=O)CC)c1=O ?
Result: 5.00 to 6.00

Query: What do we get for CC[C@@H](C(=O)NC(CC(=O)O)C(=O)CF)n1cccc(NC(=O)Cc2cccc(C)c2)c1=O (stereo partly drawn) ?
Result: 5.00 to 6.00

Query: What do we get for CC[C@@H](C(=O)N[C@@H](CC(=O)O)C(=O)COc1c(F)c(F)cc(F)c1F)n1cccc(NC(=O)Cc2ccccc2)c1=O ?
Result: > 6.00

Query: What do we get for CC[C@@H](C(=O)N[C@@H](CC(=O)O)C(=O)COc1c(F)c(F)cc(F)c1F)n1cccc(NC(=O)c2ccco2)c1=O ?
Result: 5.00 to 6.00

###

Tested on: IL-1β secretion from human whole blood
Test Method Notes: Inhibition of IL-1β secretion from whole blood
Type: cell-based
Test Conditions: human whole blood diluted 1:2, LPS 5 ng/ml, 18 hours, ELISA
pIC50: −log10 of the molar value.
Reported Metric: pIC50

Query: Given CC[C@@H](C(=O)N[C@@H](CC(=O)O)C(=O)COc1c(F)c(F)cc(F)c1F)n1cc(C(F)(F)F)cc(NS(=O)(=O)CC)c1=O [Compound 22] , state its recorded pIC50.
Result: 5.30 to 6.30

Query: What do we get for CC[C@@H](C(=O)N[C@@H](CC(=O)O)C(=O)COc1c(F)c(F)cc(F)c1F)n1cccc(NC(=O)Cc2ccccc2)c1=O [Compound 12] ?
Result: 5.30 to 6.30

Query: What do we get for CCC(=O)Nc1cccn([C@@H](CC(C)C)C(=O)NC(CC(=O)O)C(=O)CF)c1=O (stereo partly shown) [Compound 36] ?
Result: 5.30 to 6.30

Query: What do we get for CCNC(=O)Nc1cccn([C@@H](CC)C(=O)N[C@@H](CC(=O)O)C(=O)COc2c(F)c(F)cc(F)c2F)c1=O [Compound 14] ?
Result: > 6.30

Query: What do we get for CCC(=O)Nc1cccn([C@@H](CC)C(=O)NC(CC(=O)O)C(=O)CF)c1=O (stereo partly shown) [Compound 29] ?
Result: > 6.30

Query: What do we get for CC[C@@H](C(=O)N[C@@H](CC(=O)O)C(=O)COc1c(F)c(F)cc(F)c1F)n1cccc(NC(=O)C2CC2)c1=O [Compound 4] ?
Result: 5.30 to 6.30

Query: What do we get for CC[C@@H](C(=O)N[C@@H](CC(=O)O)C(=O)COc1c(F)c(F)cc(F)c1F)n1cccc(NS(=O)(=O)c2ccccc2)c1=O [Compound 21] ?
Result: 5.30 to 6.30

###

Record form. Attribute: IC50. Fill in for each entry.
Test system: IL-1β secretion from human whole blood
Test Method Notes: Inhibition of IL-1β secretion from whole blood
Type: cell-based
Test Conditions: human whole blood diluted 1:2, LPS 5 ng/ml, 18 hours, ELISA

Query: Given CC[C@@H](C(=O)N[C@@H](CC(=O)O)C(=O)COc1c(F)c(F)cc(F)c1F)n1cccc(NC(=O)OC)c1=O , state its recorded IC50.
Result: < 500 nM

Query: What do we get for CC[C@@H](C(=O)N[C@@H](CC(=O)O)C(=O)COc1c(F)c(F)cc(F)c1F)n1cccc(NC(=O)C(C)C)c1=O ?
Result: < 500 nM

Query: What do we get for CCCC(=O)Nc1cccn([C@@H](CC)C(=O)N[C@@H](CC(=O)O)C(=O)COc2c(F)c(F)cc(F)c2F)c1=O ?
Result: < 500 nM

Query: What do we get for CC[C@@H](C(=O)N[C@@H](CC(=O)O)C(=O)COc1c(F)c(F)cc(F)c1F)n1cccc(NC(=O)COC)c1=O ?
Result: 500 to 5000 nM

Query: What do we get for CC[C@@H](C(=O)N[C@@H](CC(=O)O)C(=O)COc1c(F)c(F)cc(F)c1F)n1cccc(NC(=O)c2ccsn2)c1=O ?
Result: < 500 nM

Query: What do we get for C[C@@H](C(=O)NC(CC(=O)O)C(=O)CF)n1cccc(NC(=O)Cc2ccccc2)c1=O (some centres unmarked) ?
Result: 500 to 5000 nM

Query: What do we get for CC[C@@H](C(=O)N[C@@H](CC(=O)O)C(=O)COc1c(F)c(F)cc(F)c1F)n1cccc(NC(=O)N2CCCC2)c1=O ?
Result: 500 to 5000 nM

Query: What do we get for CC[C@@H](C(=O)N[C@@H](CC(=O)O)C(=O)COc1c(F)c(F)cc(F)c1F)n1cccc(NC(=O)N(CC)CC)c1=O ?
Result: 500 to 5000 nM

###

Record form. Attribute: IC50. Fill in for each entry.
Tested on: rat cortical neurons
Test Method Notes: Hypoxia-induced apoptosis of rat cortical neurons
Type: cell-based, Wistar rat
Test Conditions: Cortical neurone, 95% N2/5% CO2, Cell Death Detection ELISA (DNA fragmentation)
Experimental: Cortical neurons are dissociated from Wistar rat embryos (E17) by a modification of the procedure of Rogers et al. 1997, Brain Res. Bulletin, 44:131. Briefly, cerebral cortices are isolated aseptically from 15-20 Wistar rat embryos. […] The yield of neurons is […] per embryo and they are 80-90% viable as assessed by Trypan blue exclusion. The neurons are cultured in complete medium at 37° C. in a normal atmosphere for 48 hours prior to the hypoxia experiments. […] Plates are read at 405 nm. […]

Query: Kindly state the measured IC50 obtained for CCNC(=O)Nc1cccn([C@@H](CC)C(=O)N[C@@H](CC(=O)O)C(=O)COc2c(F)c(F)cc(F)c2F)c1=O with rat cortical neurons.
Result: 1000 to 10000 nM

Query: What do we get for CC[C@@H](C(=O)N[C@@H](CC(=O)O)C(=O)COc1c(F)c(F)cc(F)c1F)n1cccc(NC(=O)c2ccsn2)c1=O ?
Result: < 1000 nM

Query: What do we get for CC[C@@H](C(=O)N[C@@H](CC(=O)O)C(=O)COc1c(F)c(F)cc(F)c1F)n1cc(C(F)(F)F)cc(NS(=O)(=O)CC)c1=O ?
Result: < 1000 nM
